Target: Recombinant JAK2 (Homo sapiens, UniProt O60674)
Construct: purchased Carna Biosciences
Sequence (O60674 whole entry): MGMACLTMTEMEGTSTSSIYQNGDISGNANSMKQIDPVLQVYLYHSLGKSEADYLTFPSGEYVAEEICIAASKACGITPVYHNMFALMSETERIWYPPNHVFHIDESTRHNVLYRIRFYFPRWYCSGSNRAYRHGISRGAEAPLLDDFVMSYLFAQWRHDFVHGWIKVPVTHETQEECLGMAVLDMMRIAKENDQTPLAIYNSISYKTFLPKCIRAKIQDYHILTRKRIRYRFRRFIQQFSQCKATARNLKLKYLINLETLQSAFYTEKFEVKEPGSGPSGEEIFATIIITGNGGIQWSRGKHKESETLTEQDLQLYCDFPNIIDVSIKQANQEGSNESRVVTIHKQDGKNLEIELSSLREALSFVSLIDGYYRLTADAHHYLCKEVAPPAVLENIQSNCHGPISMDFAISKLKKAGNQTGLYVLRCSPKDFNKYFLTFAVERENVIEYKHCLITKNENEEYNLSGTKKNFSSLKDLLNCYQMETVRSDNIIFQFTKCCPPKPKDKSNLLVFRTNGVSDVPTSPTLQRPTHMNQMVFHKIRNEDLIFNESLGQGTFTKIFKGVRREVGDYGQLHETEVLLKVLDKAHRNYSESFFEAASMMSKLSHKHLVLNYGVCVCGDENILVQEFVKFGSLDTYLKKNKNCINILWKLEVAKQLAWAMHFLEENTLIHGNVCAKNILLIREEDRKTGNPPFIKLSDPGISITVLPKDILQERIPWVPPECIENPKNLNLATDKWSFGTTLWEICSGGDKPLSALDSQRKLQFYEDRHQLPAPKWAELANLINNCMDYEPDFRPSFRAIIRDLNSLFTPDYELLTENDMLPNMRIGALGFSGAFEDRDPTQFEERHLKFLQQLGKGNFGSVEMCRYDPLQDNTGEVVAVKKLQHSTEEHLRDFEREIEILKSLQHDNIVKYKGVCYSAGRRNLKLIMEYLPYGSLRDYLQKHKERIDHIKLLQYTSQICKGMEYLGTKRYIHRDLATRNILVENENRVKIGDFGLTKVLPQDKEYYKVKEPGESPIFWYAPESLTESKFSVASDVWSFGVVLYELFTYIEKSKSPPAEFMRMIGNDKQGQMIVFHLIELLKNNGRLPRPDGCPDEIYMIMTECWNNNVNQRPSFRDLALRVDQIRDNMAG
Assay: JAK biochemical assay (LANCE Ultra TR-FRET), JAK2
Details: recombinant JAK2, TR-FRET; read-out: Biochemical Assay (μM) JAK2
Each record here notes measured IC50.

Worked examples, 5 molecules total:
| Molecule | IC50 |
| --- | --- |
| O=S(=O)(CCC(c1ccc(-n2cc(-c3ccnc4[nH]cnc34)cn2)nc1)C(F)(F)F)C1CC1 (centres unmarked) | > 0.5 µM |
| O=C(NCC(F)(F)F)Nc1ncc(-c2ccnc3[nH]c(=O)[nH]c23)cn1 | > 10 µM |
| COC(c1ccc(-n2cc(-c3ccnc4[nH]cnc34)cn2)nc1)C(F)(F)F (centres unmarked) | 0.2 µM |
| O=C(NCC(F)(F)F)N1CCN(c2ccnc3[nH]c(-c4ccccc4)nc23)CC1 | < 0.5 µM |
| CC(C)NCCC(c1ccc(-n2cc(-c3ccnc4[nH]cnc34)cn2)nc1)C(F)(F)F (centres unmarked) | < 0.1 µM |

Qu. Looking for the measured IC50 of `CCOc1nc2c(-c3cnn(C(=O)NCC(F)(F)F)c3)ccnc2[nH]1` , can you help?
Ans. < 1 µM

Qu. Looking for the measured IC50 of `OCc1ccc(-n2cc(-c3ccnc4[nH]cnc34)cn2)nc1` , can you help?
Ans. > 0.5 µM

Qu. Looking for the measured IC50 of N#CC(c1ccc(-n2cc(-c3ccnc4[nH]cnc34)cn2)nc1)C1CC1 (centres unmarked) , can you help?
Ans. > 0.5 µM
